method: plasmodial surface anion channel blockers, osmotic lysis – cell-based, P. falciparum Indochina, OD700, 18 h, primary screen (AID 1157)
test settings: P. falciparum Indochina infected erythrocytes, osmotic lysis OD700, 18 h; higher = more signal, called active from +8 up or from −8 down
Everything with z-score lower than 1 is no; everything else, including exactly 1, is yes.

Q: # check: z-score of CCCNC(=O)[C@@]1(C)c2ccccc2C(=O)N(c2ccc(C)cn2)[C@H]1c1ccc(CO)cc1 is greater than or equal to 1
Result: no

Q: # check: z-score of O=C1N(Cc2ccccc2)c2ccccc2C[C@]12N=C(c1ccc(OCCCO)cc1)O[C@@H]2c1ccccc1 is greater than or equal to 1
Result: yes

Q: # check: z-score of COc1ccc([Si](C)(C)[C@H]2[C@H](CC(=O)N(CCO)Cc3ccccc3)O[C@@]3(C(=O)N(C)c4c(Br)cc(C)cc43)[C@@H]2C)cc1 is greater than or equal to 1
Result: yes

Q: # check: z-score of COCCOC(=O)N1C(=O)[C@@]2(c3cc(C#CCCO)ccc31)[C@H](c1ccc(OCCO)cc1)N1[C@H](c3ccccc3)[C@H](c3ccccc3)OC(=O)[C@H]1[C@@H]2C(=O)Nc1nc2ccccc2s1 is greater than or equal to 1
Result: no

Q: # check: z-score of NCCCCCCNC(=O)[C@@H]1C[C@@H]2C(=O)N[C@@H](CCCCN)C(=O)N2[C@@H]1c1ccc(O)cc1 is greater than or equal to 1
Result: no

Q: # check: z-score of CC(C)c1ccc(NN2C(C(O)c3ccc(C#N)cc3)C=CC3C(=O)N(c4ccccc4)C(=O)C32)cc1 (configuration not stated) is greater than or equal to 1
Result: yes

Q: # check: z-score of CO[C@H]1O[C@H](CO)[C@@H](OC(=O)Nc2ccc(Br)cc2)[C@@H]2OC(=O)[C@@H](Cc3ccccc3)C/C=C/C[C@H](Cc3ccccc3)C(=O)O[C@@H]12 is greater than or equal to 1
Result: yes

These measurements were taken from PubChem BioAssay.
